Each entry below lists one item and its recorded Phage binding ELISA signal, Anti-PSMA Fab value.
biological target: T1, PSMA Fab (006 PSMA Fab) (Fab biotinylated for capture on neutravidin plates (site not given)); assay: clonal phage ELISA; biotinylated PSMA Fab on neutravidin plate, blocking buffer alone; anti-M13-HRP detection;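 note: clonal phage applied as crude supernatants to wells preincubated with blocking buffer, binding read by ELISA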
T1 construct: also called Anti-PSMA Fab; anti-PSMA Fab
observation_type: Phage binding ELISA signal, Anti-PSMA Fab

- binder: "PLKLCIPEWMCVEL (also called Peptide-180 library clone; not shown: pIII filament protein of the bacteriophage) [Phage-3450]"
  recorded_measurement: 1.75
- binder: "SPPLCVPVWMCHGF (also called Peptide-180 library clone; not shown: pIII filament protein of the bacteriophage) [Phage-3459]"
  recorded_measurement: 1.74
- binder: "TINICKPQWMCIGF (also called Peptide-180 library clone; not shown: pIII filament protein of the bacteriophage) [Phage-3451]"
  recorded_measurement: 1.74
